Ref: ChEMBL document CHEMBL3232887

- TEST_PROTOCOL: Kinetic solubility of the compound in water after 30 mins by HPLC analysis in presence of 0.02% HPMC
- Type: physicochemical
- CONDITION_DESCRIPTION: water with 0.02% HPMC; read-out: Kinetic_solubility
PROPERTY: solubility kinetic at 0.5 h (µg/mL)
Report as a plain number; the unit µg/mL is understood.

The reported solubility kinetic at 0.5 h of the molecule COc1cc(-c2ccccc2)ccc1C(C)C#Cc1c(C)nc(N)nc1N (stereo unspecified) was 25

---

- Test system: Candida albicans
- TEST_PROTOCOL: Antifungal activity against Candida albicans NCCLS84 after 24 hrs by XTT assay
- Format: functional
- CONDITION_DESCRIPTION: SC5314, 24 h, in the assay text read “SC5314” for “NCCLS84”
PROPERTY: MIC
Field note: include the unit after the figure.

| COMPOUND | PROPERTY | RECORDED_MEASUREMENT |
| --- | --- | --- |
| CCc1nc(N)nc(N)c1C#CC(C)c1cc(OC)cc(-c2ccncc2)c1 (stereo not drawn) | MIC | 25 µg/mL |
| CCc1nc(N)nc(N)c1C#CC(C)c1ccc(-c2ccc(C)cc2)nc1 (stereo not drawn) | MIC | 0.39 µg/mL |
| CCc1nc(N)nc(N)c1C#CC(C)c1ccc(-c2ccc(F)cc2)cc1OC (stereo not drawn) | MIC | 1.8 µg/mL |
| COc1cc(-c2ccccc2)ccc1C(C)C#Cc1c(C)nc(N)nc1N (stereo not drawn) | MIC | 1.6 µg/mL |
| COc1cc(C(C)C#Cc2c(C)nc(N)nc2N)ccc1-c1ccccc1 (stereo not drawn) | MIC | 6.25 µg/mL |
| CCc1nc(N)nc(N)c1C#CC(C)c1ccc(-c2ccccc2)cc1OC (stereo not drawn) | MIC | 6.3 µg/mL |

The reported MIC of the compound COc1cc(C(C)C#Cc2c(C)nc(N)nc2N)c(OC)cc1-c1ccccc1 (stereo not drawn) was 3.1 µg/mL

The reported MIC of the compound CCc1nc(N)nc(N)c1C#CC(C)c1ccc(-c2ccccc2)nc1 (stereo not drawn) was 0.39 µg/mL

The reported MIC of the compound CCc1nc(N)nc(N)c1C#CC(C)c1ccc(-c2ccc(C)cc2)cc1OC (stereo not drawn) was 3.1 µg/mL

The reported MIC of the compound COc1cc(-c2ccccc2)cc(C(C)C#Cc2c(C)nc(N)nc2N)c1 (stereo not drawn) was 23 µg/mL

The reported MIC of the compound CCc1nc(N)nc(N)c1C#CC(C)c1cnc(-c2ccccc2)nc1 (stereo not drawn) was 0.19 µg/mL

The reported MIC of the compound CCc1nc(N)nc(N)c1C#CC(C)c1ccc(-c2ccncc2)cc1OC (stereo not drawn) was 25 µg/mL

The reported MIC of the compound CCc1nc(N)nc(N)c1C#CC(C)c1ccc(-c2ccccc2)cc1 (stereo not drawn) was 7.5 µg/mL

---

- System: MCF10
- TEST_PROTOCOL: Cytotoxicity against human MCF10 cells
- Format: cell-based
IC50 by entry:
Report as a plain number; the unit µM is understood.

Use the examples below as a reference point.
| MOLECULE | IC50 (µM) |
| --- | --- |
| CCc1nc(N)nc(N)c1C#CC(C)c1ccc(-c2ccc(O)cc2)cc1OC (stereo not given) | 148 |
| CCc1nc(N)nc(N)c1C#CC(C)c1ccc(-c2ccccc2)cc1 (stereo not given) | 505 |
| CCc1nc(N)nc(N)c1C#CC(C)c1ccc(-c2ccc(C(=O)OC)cc2)cc1OC (stereo not given) | 96 |
| CCc1nc(N)nc(N)c1C#CC(C)c1ccc(-c2ccccc2)nc1 (stereo not given) | 148 |

Proceed to the following item.
The reported IC50 of the molecule COc1cc(C(C)C#Cc2c(C)nc(N)nc2N)ccc1-c1ccccc1 (stereo not given) was 80
